All figures here come from PubChem BioAssay AID1159580.

measurementDescription: chemical genetic growth profiling, strain panel (AID 1159580);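 also: tested at 20 µM; growth read once vehicle control cultures reached saturation at 30 °C; 1 = growth at the plate median or of vehicle wells; lower values mean less growth of the strain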
conditionInfo: S. cerevisiae deletion strains, growth OD, locus YBL061C, strain skt5
About 2,000 (36%) of roughly 5,500 compounds were called active. About 18% were inconclusive and are not listed. Rule as the data show it: active = normalized growth mostly below about 0.91 (no sharp cut-off); inconclusive = no clear call, values can overlap the other calls; inactive = mostly above about 0.92. The list shows a part of the results.
Respond with a class label; see t (active), f (inactive)

Recorded results for 5 molecules are shown here.
[[record]]
molecule = "COC(=O)C[C@H]1C(C)(C)C(=O)[C@@H]2CC3C4=CC(=O)O[C@@H](c5ccoc5)[C@]4(C)CCC3[C@@]1(C)C2=O (stereo partly specified)"
label = "f"

[[record]]
molecule = "C[C@@H]1OC(O[C@H]2C(O[C@H]3CC[C@@]4(C)C(CC[C@]5(C)C4CC=C4C6CC(C)(C)CC[C@]6(C(=O)O)CC[C@]45C)[C@]3(C)CO)OC[C@H](O)[C@@H]2O)[C@H](O)[C@H](O)[C@H]1O (stereo partly specified)"
label = "t"

[[record]]
molecule = "O=C1c2c(O)cccc2Cc2cccc(O)c21"
label = "f"

[[record]]
molecule = "CC1(C)CC[C@]2(C(=O)O)CC[C@]3(C)C(=CCC4[C@@]5(C)CC[C@H](O)[C@@](C)(CO)C5CC[C@]43C)C2C1 (stereo partly specified)"
label = "f"

[[record]]
molecule = "CC(=O)O[C@@H]1CC[C@@]2(C)C(CC[C@]3(C)C2CC=C2C4CC(C)(C)CC[C@]4(C(=O)O)CC[C@]23C)C1(C)C (stereo partly specified)"
label = "f"


Could you check what this test reported for CCOP(=S)(OCC)Oc1nc(Cl)c(Cl)cc1Cl ?
f

Could you check what this test reported for C/C=C(/C)C(=O)OC1CCC2(C)C3CCC4C5(O)CC(O)C6(O)C(CN7CC(C)CCC7C6(C)O)C5(O)CC42OC13O (stereo unspecified) ?
f

---

measurementDescription: chemical genetic growth profiling, strain panel (AID 1159580)
conditionInfo: S. cerevisiae deletion strains, growth OD, locus YNL183C, strain NPR1
In all, about 5,500 compounds went through this assay and about 2,000 (36%) were called active. Another 18% or so got no clear call; they are omitted. Cut-off read from the data, not from the text of the source: active = normalized growth mostly below about 0.91 (no sharp cut-off); inconclusive = no clear call, values can overlap the other calls; inactive = mostly above about 0.92. This is one part of the list.
Respond with a class label; see y = active, n = inactive

[[record]]
molecule = "CC(=O)/C=C\\[C@@H]1[C@@]2(C)CCCC(C)(C)C2CC[C@@]1(C)O (stereo partly drawn)"
label = "n"

[[record]]
molecule = "OC1CCN(c2cc(C(F)(F)F)nc3cc(Cl)cc(Cl)c23)CC1"
label = "n"

[[record]]
molecule = "CCOC(=O)OC(C)OC(=O)C1N2C(=O)C(NC(=O)[C@H](N)c3ccccc3)C2SC1(C)C (stereo partly drawn)"
label = "n"

[[record]]
molecule = "CC(C)(C)C(=O)N(Cc1cccnc1)Cc1ccc(Cl)cc1Cl"
label = "n"

[[record]]
molecule = "CC(C)=CCCC1(C)C=Cc2c(O)c3c(c(CC=C(C)C)c2O1)OC12C(=CCCC1C(C)(C)O[C@@]2(C/C=C(\\C)C(=O)O)C(=O)O)C3=O (stereo partly drawn)"
label = "n"


Could you check what this test reported for O=C(c1cccs1)N(Cc1cccnc1)Cc1ccc(Cl)cc1Cl ?
n

Could you check what this test reported for C[C@H]1[C@H](C)CC[C@]2(CO)CC[C@]3(C)C(=CCC4[C@@]5(C)CC[C@H](O)C(C)(C)C5CC[C@]43C)[C@H]12 (stereo partly drawn) ?
n

Could you check what this test reported for CC(C)=CCCC1(C)C=Cc2c(O)c3c(c(CC=C(C)C)c2O1)OC12C(=CC4CC1C(C)(C)OC2(C/C=C(/C)C(=O)O)C4=O)C3=O (stereo not drawn) ?
y

---

measurementDescription: chemical genetic growth profiling, strain panel (AID 1159580)
conditionInfo: S. cerevisiae deletion strains, growth OD, locus YCL011C, strain gbp2
In all, about 5,500 compounds went through this assay and about 2,000 (36%) were called active. Inconclusive results (about 18%) are left out. Rule as the data show it: active = normalized growth mostly below about 0.91 (no sharp cut-off); inconclusive = no clear call, values can overlap the other calls; inactive = mostly above about 0.92. This is one part of the list.
Respond with a class label; see active, inactive

[[record]]
compound = "O=c1oc2cc(O)ccc2s1"
label = "inactive"

[[record]]
compound = "COC(=O)Nc1nc2ccc(C(=O)c3ccccc3)cc2[nH]1"
label = "inactive"


Could you check what this test reported for CC(=O)NCc1c(I)c(NC(C)=O)c(I)c(C(=O)O)c1I ?
inactive

Could you check what this test reported for COc1cc(C(=O)NCCCCCC(=O)O)cc(OC)c1OC ?
inactive

Could you check what this test reported for COC1=C[C@@H]2[C@@H]3Cc4ccc(OC)c(O)c4[C@]2(CCN3C)CC1=O ?
inactive

---

measurementDescription: chemical genetic growth profiling, strain panel (AID 1159580);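 also: tested at 20 µM; growth read once vehicle control cultures reached saturation at 30 °C; 1 = growth at the plate median or of vehicle wells; lower values mean less growth of the strain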
conditionInfo: S. cerevisiae deletion strains, growth OD, locus YPL051W, strain arl3
The whole screen tested about 5,500 compounds, of which about 2,000 (36%) were called active. Not shown: some 18% with an inconclusive outcome. No stated cut-off is given here; in the data, active means normalized growth mostly below about 0.91 (no sharp cut-off); inconclusive means no clear call, values can overlap the other calls; inactive means mostly above about 0.92. The list shows a part of the results.
Respond with a class label; see active, inactive

Recorded results for 4 compounds are shown here.
[[record]]
compound = "O=C(CNC(=O)c1ccc(Cl)cc1)NO"
label = "inactive"

[[record]]
compound = "NNC(=O)c1ccncc1"
label = "inactive"

[[record]]
compound = "COc1ccc2c(c1)c(CC(=O)OCC(=O)O)c(C)n2C(=O)c1ccc(Cl)cc1"
label = "inactive"

[[record]]
compound = "C[C@@H]1OC(O[C@H]2C(O[C@H]3CC[C@@]4(C)C(CC[C@]5(C)C4CC=C4C6CC(C)(C)CC[C@]6(C(=O)O)CC[C@]45C)[C@]3(C)CO)OC[C@H](O)[C@@H]2O)[C@H](O)[C@H](O)[C@H]1O (some centres undefined)"
label = "active"


Could you check what this test reported for CC(C)CCCC1(C)C=Cc2c(O)c3c(c(CCC(C)C)c2O1)OC12C(CC4CC1C(C)(C)OC2(CCC(C)C(=O)O)C4O)C3=O (centres undefined) ?
inactive

Could you check what this test reported for CC(C)CC(N(C)C)C1(c2ccc(Cl)cc2)CCC1 (centres undefined) ?
inactive

---

measurementDescription: chemical genetic growth profiling, strain panel (AID 1159580);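 also: tested at 20 µM; growth read once vehicle control cultures reached saturation at 30 °C; 1 = growth at the plate median or of vehicle wells; lower values mean less growth of the strain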
conditionInfo: S. cerevisiae deletion strains, growth OD, locus YNR052C, strain pop2
The whole screen tested about 5,500 compounds, of which about 2,000 (36%) were called active. About 18% were inconclusive and are not listed. No stated cut-off is given here; in the data, active means normalized growth mostly below about 0.91 (no sharp cut-off); inconclusive means no clear call, values can overlap the other calls; inactive means mostly above about 0.92. Some of the results follow.
Respond with a class label; see active, inactive

Recorded results for 2 molecules are shown here.
[[record]]
molecule = "Nc1c2c(nc3ccccc13)CCCC2O (centres undefined)"
label = "inactive"

[[record]]
molecule = "CC(=O)NCc1c(I)c(NC(C)=O)c(I)c(C(=O)O)c1I"
label = "inactive"


Could you check what this test reported for N[C@H](C(=O)O)[C@@H]1CC(Cl)=NO1 ?
active

Could you check what this test reported for NC(N)=N/N=C/c1c(Cl)cccc1Cl ?
inactive

Could you check what this test reported for COc1ccc2c3c([nH]c2c1)C(C)=NCC3 ?
inactive

Could you check what this test reported for Nc1c2ccccc2nc2ccccc12 (tested in a mixture with another compound) ?
active

Could you check what this test reported for COC1=C[C@@H]2[C@@H]3Cc4ccc(OC)c(O)c4[C@]2(CCN3C)CC1=O ?
inactive

Could you check what this test reported for O=c1[nH]cc(F)c(=O)[nH]1 ?
active

Could you check what this test reported for CC(C)(Oc1ccc(CCNC(=O)c2ccc(Cl)cc2)cc1)C(=O)O ?
inactive

Could you check what this test reported for NNC(=O)c1ccncc1 ?
inactive

Could you check what this test reported for Cc1ccnc(NS(=O)(=O)c2ccc(N)cc2)n1 ?
inactive

Could you check what this test reported for NNc1nncc2ccccc12 ?
inactive

Could you check what this test reported for O=c1oc2cc(O)ccc2s1 ?
inactive

Could you check what this test reported for Nc1ccc(S(=O)(=O)Nc2cnc3ccccc3n2)cc1 ?
inactive

---

measurementDescription: chemical genetic growth profiling, strain panel (AID 1159580);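 also: tested at 20 µM; growth read once vehicle control cultures reached saturation at 30 °C; 1 = growth at the plate median or of vehicle wells; lower values mean less growth of the strain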
conditionInfo: S. cerevisiae deletion strains, growth OD, locus YDR001C, strain nth1, hits give low values
The whole screen tested about 5,500 compounds, of which about 2,000 (36%) were called active. Roughly 18% stayed inconclusive and do not appear here. Some of the results follow.
attributeMeasured: normalized growth
Give a plain numeric answer without units written out.

[[record]]
compound = "O=C1c2c(O)cccc2Cc2cccc(O)c21"
assayresult = 0.988


Form: compound = C/C=C(/C)C(=O)OC1CCC2(C)C3CCC4C5(O)CC(O)C6(O)C(CN7CC(C)CCC7C6(C)O)C5(O)CC42OC13O (stereo not drawn) ; normalized growth = 0.995

Form: compound = CC(C)=CCCC1(C)C=Cc2c(O)c3c(c(CC=C(C)C)c2O1)OC12C(=CCCC1C(C)(C)O[C@@]2(C/C=C(\C)C(=O)O)C(=O)O)C3=O (stereo partly drawn) ; normalized growth = 0.999

Form: compound = Cc1ccnc(NS(=O)(=O)c2ccc(N)cc2)n1 ; normalized growth = 0.999

Form: compound = COC(=O)Nc1nc2ccc(S(=O)c3ccccc3)cc2[nH]1 (stereo not drawn) ; normalized growth = 0.983

Form: compound = CC1(C)CC[C@]2(C(=O)O)CC[C@]3(C)C(=CCC4[C@@]5(C)CC[C@H](O)[C@@](C)(CO)C5CC[C@]43C)C2C1 (stereo partly drawn) ; normalized growth = 1.02

Form: compound = N=C(N)c1ccc(OCCCCCOc2ccc(C(=N)N)cc2)cc1 ; normalized growth = 0.974

Form: compound = O=C(Nc1ccc(C(=O)O)c(O)c1)c1ccccc1 ; normalized growth = 0.964
